Cited source: the supplement of paper PMC4894684

tested on: Toxoplasma gondii RH (in HFF); experiment: parasite growth relative to the screen mean (all compounds = 100%); higher = less inhibition of parasite growth; conditions: 5 µM; 72 h; oxygen 21 %
Where a name gives a salt, the structure may show the parent alone.
Use 1 (yes) when the recorded parasite growth is no lower than 70%; use 0 (no) when it is lower.

Task item: Is parasite growth at least 70%? Consider C=C(C)[C@H]1CN[C@H](C(=O)O)[C@H]1CC(=O)O [Kainic acid]
Reply: 0 (no)

Task item: Is parasite growth at least 70%? Consider "Cc1nnc2n1-c1sc(CCC(=O)N3CCOCC3)cc1C(c1ccccc1Cl)=NC2"
Reply: 1 (yes)

Task item: Is parasite growth at least 70%? Consider "N[C@@]1(C(=O)O)CC[C@@H](C(=O)O)C1"
Reply: 1 (yes)

Task item: Is parasite growth at least 70%? Consider Cc1cccc(C(C)c2c[nH]cn2)c1C (configuration not stated) [Medetomidine hydrochloride]
Reply: 0 (no)

Task item: Is parasite growth at least 70%? Consider CN1[C@@H]2CC[C@H]1C[C@@H](OC(c1ccc(F)cc1)c1ccc(F)cc1)C2 [3α-Bis-(4-fluorophenyl) methoxytropane hydrochloride]
Reply: 0 (no)

***
Task item: Is parasite growth at least 70%? Consider "Cc1ncc(CN2CC=C(c3ccccc3)CC2)c(N)n1"
Reply: 1 (yes)

Task item: Is parasite growth at least 70%? Consider O=Cc1cn(Cc2ccc(Cl)cc2)c2ccccc12 [Oncrasin 1]
Reply: 1 (yes)

Task item: Is parasite growth at least 70%? Consider NCC(O)c1ccc(O)cc1 (configuration not stated) [Octopamine hydrochloride]
Reply: 1 (yes)

Task item: Is parasite growth at least 70%? Consider c1cc(Cc2cnc[nH]2)ccn1 [Immethridine dihydrobromide]
Reply: 1 (yes)

Task item: Is parasite growth at least 70%? Consider "CCOC(=O)c1ncn2c1CN(C)C(=O)c1cc(N=[N+]=[N-])ccc1-2"
Reply: 0 (no)
